// data source = the domain aggregation screens of Martell et al. (2025)

List of soluble fraction (log2) values.
# measurement-protocol: soluble fraction after stress (log2 fold change); higher = more stays soluble; pooled small domains, quantitative proteomics
# conditions-used: stress: 50 degC
Lab note: write the figure by itself, no unit.

1. HMEPTLVVARDKDAKSPLVAKLMKELGVDAAPRVIVDDSVIGGAKLSHNHTEIDATYKTALINLYQAIT : 0.126

Reported soluble fraction (log2) ( HMNTEEITYSRFQQMLEAGEISQVSIESNRILILPSEETGIEKVLYTGIINDPGLVERLNSAGVEFRAPIE ) = -0.00156

Short answer for HMEKTIQIYDNIIIKDFAEKMEVSPSQVITKLIGLGVMANLNQPIDINSAVIVGKEFGFNVESM : soluble fraction (log2) was -0.674

Record summary for HMPQNVSVPDVTNMTQAEAESKLKEKNLAVGNIIPELSTTVEKDKVTRTNPESGSNVRKNSKVDIYVSQG : reported soluble fraction (log2) = 0.0455

// HMDEYGEVQALQRAGQTSEALARADRHIAAHPNDPQMRFVKANLLSAGGRAGEAETLLVQLTRD : soluble fraction (log2) value = -0.0234

// recorded soluble fraction (log2) for HMKSYTYNPNYLSDYNAYRLGIPLEALERLQLHRSTGRYVNSLSDFQSVTGISDSLKHSLSSSLRFPN : -0.876

HMLLNPFERLTERELEIADLYAKGYGNLEIANFLSIKQNTVSTYKKRIFEKLGIDNLVELIELIKNY yielded soluble fraction (log2) of 0.148

Short answer for HMEPMTDQQILEGFAEFKRQNPDLMNRPATQAIVNLTLPGGTPISFRSGAGAAALNQYLESIGMRAGP : soluble fraction (log2) was 0.202
